So I've got a bunch of molecules here, and I need their inhibition zone (IZ) values.
# System: Streptococcus pyogenes
# methodNotes: Antibacterial activity against multidrug-resistant Streptococcus pyogenes after 20 hrs by cylinder and well method; note: test concentration or dose not given here
# Type: functional
Express your answer as a number followed by its unit.

Example entries begin here.
{"molecule": "COc1ccc(C2CC(c3cc4ccccc4o3)=NN2C(=O)Cn2c3ccccc3c3nc4ccccc4nc32)c(O)c1 (stereo not drawn)", "propertyLabel": "inhibition zone (IZ)", "endpointValue": "14 mm"}
{"molecule": "O=C(O)c1ccccc1C1CC(c2cc3ccccc3o2)=NN1C(=O)Cn1c2ccccc2c2nc3ccccc3nc21 (stereo not drawn)", "propertyLabel": "inhibition zone (IZ)", "endpointValue": "10 mm"}
{"molecule": "O=C(Cn1c2ccccc2c2nc3ccccc3nc21)N1N=C(c2cc3ccccc3o2)CC1c1ccccc1O (stereo not drawn)", "propertyLabel": "inhibition zone (IZ)", "endpointValue": "10 mm"}
{"molecule": "CCn1cc(C(=O)O)c(=O)c2cc(F)c(N3CCNCC3)cc21 [NORFLOXACIN]", "propertyLabel": "inhibition zone (IZ)", "endpointValue": "30 mm"}

Dear colleague, could you please provide inhibition zone (IZ) for the molecules listed below?
1. COc1ccc(C2CC(c3cc4ccccc4o3)=NN2C(=O)Cn2c3ccccc3c3nc4ccccc4nc32)cc1 (stereo not drawn)
2. O=C(Cn1c2ccccc2c2nc3ccccc3nc21)N1N=C(c2cc3ccccc3o2)CC1c1ccc(Cl)cc1 (stereo not drawn)
3. O=C(Cn1c2ccccc2c2nc3ccccc3nc21)N1N=C(c2cc3ccccc3o2)CC1c1ccccc1 (stereo not drawn)

Output:
["14 mm", "14 mm", "12 mm"]

For reference, reported inhibition zone (IZ) for CN(C)c1ccc(C2CC(c3cc4ccccc4o3)=NN2C(=O)Cn2c3ccccc3c3nc4ccccc4nc32)cc1 (stereo not drawn) stands at 9 mm

Values were extracted from ChEMBL document CHEMBL1153606.
